# credit: patent US9988424

Each entry below carries its recorded EC50.
- assay-system: T1, AE.A244 gp120 delta 11 (HIV-1)
- T1 construct: also called E.A244gp120Δ11; AE.A244 Δ11 gp120
- method-summary: ELISA

[
  {
    "binder": "CH59 (antibody, V domains shown, also called mAb CH59) VH: EVQLVESGGGLVQPGRSLRLSCAASGFTFDDGAMHWVRQAPGKGLEWVSGISWNSNIIAYADSVKGRFTISRDNAKNSLYLEMNSLRVEDTALYYCAKDSPRGELPLNYWGQGTLVTVSS VL: SYELTQPPSVSVSPGQTARITCSGDALPKNYAYWYQQKSGQAPVLVIYEDSKRPSGIPERFSGSSSGTMATLTISGAQVEDEADYYCYSTDSSGNHRVFGGGTKLTVL",
    "property-label": "EC50",
    "measured-result": "0.087 nM"
  },
  {
    "binder": "CH59 reverted unmutated ancestor antibody (antibody, V domains shown, also called CH59 RUA; CH59_RUA) VH: EVQLVESGGGLVQPGRSLRLSCAASGFTFDDYAMHWVRQAPGKGLEWVSGISWNSGSIGYADSVKGRFTISRDNAKNSLYLQMNSLRAEDTALYYCAKDSPRGELPFDYWGQGTLVTVSS VL: SYELTQPPSVSVSPGQTARITCSGDALPKKYAYWYQQKSGQAPVLVIYEDSKRPSGIPERFSGSSSGTMATLTISGAQVEDEADYYCYSTDSSGNHRVFGGGTKLTVL",
    "property-label": "EC50",
    "measured-result": "15.5 nM"
  },
  {
    "binder": "697D (antibody, V domains shown, also called mAb 697D; V2 conformational mAb 697D) VH: QVQLVQSGAEVKKPGSSVKVSCKASGGNFNTYTISWVRQAPGQGLEWMGRIIPIFGIVNPAQKFPGRVTINVDKSTNTAYMELSSLRSEDTAVYYCATSGVGLHFGYFDYWGQGTQVTVSS VL: QSVLTQPPSVSGAPGQRVTISCTGSSSNIGAHYDVHWYQQLPGTAPKLLIYGNSNRPSGVPDRFSGSKSGTSASLAITGLQAEDEADYYCQSYDSSLSGYVFGTGTKVTVL",
    "property-label": "EC50",
    "measured-result": "0.23 nM"
  }
]

In: // returns reported EC50 for input 697D reverted unmutated ancestor antibody (antibody, V domains shown, also called 697D RUA) VH: QVQLVQSGAEVKKPGSSVKVSCKASGGTFSSYTISWVRQAPGQGLEWMGRIIPILGIANYAQKFQGRVTITADKSTSTAYMELSSLRSEDTAVYYCATSGVGLHFGYFDYWGQGTLVTVSS VL: QSVLTQPPSVSGAPGQRVTISCTGSSSNIGAGYDVHWYQQLPGTAPKLLIYGNSNRPSGVPDRFSGSKSGTSASLAITGLQAEDEADYYCQSYDSSLSGYVFGTGTKVTVL
Out: > 667 nM
